These data points were gathered from patent US7829665B2.

We begin with a simple list: items and their reported IC50.
biological target: full-length NS3/NS4A-2 (HCV NS3 protease) (Hepatitis C virus genotype 1a); construct: Recombinant E. coli or Baculovirus full-length NS3 was diluted to 3.33 μM with assay buffer; made in house; host or cells: E. coli or baculovirus (BV) expression system; test: NS3-NS4 protease assay / NS3 inhibition assay (RETS1 substrate, fluorescence kinetic read); format: biochemical; details: recombinant E. coli or Baculovirus full-length NS3 with NS4A-2; read-out: NS3-NS4 IC50
Sequence (P27958 1027-1657): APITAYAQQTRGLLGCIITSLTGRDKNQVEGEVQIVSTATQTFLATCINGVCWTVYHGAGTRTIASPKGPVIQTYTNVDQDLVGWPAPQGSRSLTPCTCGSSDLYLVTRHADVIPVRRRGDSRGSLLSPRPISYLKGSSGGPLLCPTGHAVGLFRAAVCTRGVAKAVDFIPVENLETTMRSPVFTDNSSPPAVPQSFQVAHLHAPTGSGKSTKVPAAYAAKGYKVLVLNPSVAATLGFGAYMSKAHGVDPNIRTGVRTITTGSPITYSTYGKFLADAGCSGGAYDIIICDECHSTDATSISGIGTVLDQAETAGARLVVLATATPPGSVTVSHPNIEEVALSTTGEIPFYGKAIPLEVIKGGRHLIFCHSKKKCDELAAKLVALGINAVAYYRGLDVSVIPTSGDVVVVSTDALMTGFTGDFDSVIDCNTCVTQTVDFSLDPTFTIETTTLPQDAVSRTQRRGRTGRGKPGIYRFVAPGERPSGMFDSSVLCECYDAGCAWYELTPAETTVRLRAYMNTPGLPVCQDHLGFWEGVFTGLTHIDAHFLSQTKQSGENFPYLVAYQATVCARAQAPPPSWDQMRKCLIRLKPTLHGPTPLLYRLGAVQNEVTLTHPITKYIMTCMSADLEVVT

compound	IC50
CCOC(=O)[C@@]12C[C@H]1/C=C\CCCCC[C@H](N)C(=O)N1C[C@H](OC(=O)N3Cc4ccc(OCCN5CCOCC5)cc4C3)C[C@H]1C(=O)N2	> 10000 nM
O=C(N[C@H]1CCCCC/C=C\[C@@H]2C[C@@]2(C(=O)NS(=O)(=O)C2CCCC2)NC(=O)[C@@H]2C[C@@H](OC(=O)N3CCc4ccccc4C3)CN2C1=O)OC1CCCC1	< 100 nM
CC(C)(C)OC(=O)N[C@H]1CCCCC/C=C\[C@@H]2C[C@@]2(C(=O)Nc2nccs2)NC(=O)[C@@H]2C[C@@H](OC(=O)N3Cc4cccc(F)c4C3)CN2C1=O	< 1000 nM
CC(C)(C)OC(=O)N[C@H]1CCCCC/C=C\[C@@H]2C[C@@]2(C(=O)NCCN2CCOCC2)NC(=O)[C@@H]2C[C@@H](OC(=O)N3Cc4cccc(F)c4C3)CN2C1=O	> 10000 nM
COc1ccccc1S(=O)(=O)NC(=O)[C@@]12C[C@H]1/C=C\CCCCC[C@H](NC(=O)OC(C)(C)C)C(=O)N1CCC[C@H]1C(=O)N2	< 1000 nM
CN(C)S(=O)(=O)NC(=O)[C@@]12C[C@H]1/C=C\CCC(F)(F)CC[C@H](NC(=O)OC(C)(C)C)C(=O)N1C[C@H](OC(=O)N3Cc4cccc(F)c4C3)C[C@H]1C(=O)N2	< 100 nM
CC(C)(C)OC(=O)N[C@H]1CCCCC/C=C\[C@@H]2C[C@@]2(CNS(=O)(=O)C2CC2)NC(=O)[C@@H]2C[C@@H](OC(=O)N3Cc4cccc(F)c4C3)CN2C1=O	< 10000 nM
COc1ccccc1CCNS(=O)(=O)NC(=O)[C@@]12C[C@H]1/C=C\CCCCC[C@H](NC(=O)OC(C)(C)C)C(=O)N1CCC[C@H]1C(=O)N2	> 10000 nM
O=C(N[C@H]1CCCCC/C=C\[C@@H]2C[C@@]2(C(=O)NS(=O)(=O)N2CCC2)NC(=O)[C@@H]2C[C@@H](OC(=O)N3Cc4cccc(F)c4C3)CN2C1=O)OC1CCCC1	< 100 nM
CC(C)(C)OC(=O)N[C@H]1CCCCC/C=C\[C@@H]2C[C@@]2(C(=O)NS(=O)(=O)N(CCC#N)C2CC2)NC(=O)[C@@H]2CCCN2C1=O	< 1000 nM
CN(Cc1ccccc1)S(=O)(=O)NC(=O)[C@@]12C[C@H]1/C=C\CCCCC[C@H](NC(=O)OC(C)(C)C)C(=O)N1CCC[C@H]1C(=O)N2	< 10000 nM
CS(=O)(=O)NC(=O)[C@@]12C[C@H]1/C=C\CCCCC[C@H](NC(=O)OC1CCCC1)C(=O)N1C[C@H](OC(=O)N3CCc4ccccc4C3)C[C@H]1C(=O)N2	< 100 nM
CC(C)(C)OC(=O)N[C@H]1CCCCC/C=C\[C@@H]2C[C@@]2(C(=O)O)NC(=O)[C@@H]2C[C@@H](OC(=O)N3Cc4c(Cl)ccc(Cl)c4C3)CN2C1=O	< 100 nM
COC[C@@H]1CCCN1S(=O)(=O)NC(=O)[C@@]12C[C@H]1/C=C\CCCCC[C@H](NC(=O)OC(C)(C)C)C(=O)N1CCC[C@H]1C(=O)N2	< 1000 nM
CCOC(=O)[C@@]12C[C@H]1/C=C\CCCCC[C@H](N)C(=O)N1C[C@H](OC(=O)N3Cc4ccc(OCCNC(C)C)cc4C3)C[C@H]1C(=O)N2	> 10000 nM
CC(C)(C)OC(=O)N[C@H]1CCCCC/C=C\[C@@H]2C[C@@]2(C(=O)NS(=O)(=O)Nc2cccc(Cl)c2)NC(=O)[C@@H]2CCCN2C1=O	< 1000 nM
CC(C)(C)OC(=O)N[C@H]1CCCCC/C=C\[C@@H]2C[C@@]2(C(=O)NS(=O)(=O)c2cnc(Cl)c(Br)c2)NC(=O)[C@@H]2CCCN2C1=O	< 10000 nM
O=C(N[C@H]1CCCCC/C=C\[C@@H]2C[C@@]2(C(=O)NS(=O)(=O)C2CCCCC2)NC(=O)[C@@H]2C[C@@H](OC(=O)N3CCc4ccccc4C3)CN2C1=O)OC1CCCC1	< 100 nM
O=C(N[C@H]1CCCCC/C=C\[C@@H]2C[C@@]2(C(=O)O)NC(=O)[C@@H]2C[C@@H](OC(=O)N3Cc4cccc(Cl)c4C3)CN2C1=O)OC1CCCC1	< 100 nM
CC(C)(C)CC(=O)N[C@H]1CCCCC/C=C\[C@@H]2C[C@@]2(C(=O)NS(=O)(=O)C2CC2)NC(=O)C2CCCN2C1=O (stereo partly drawn)	< 10000 nM
Cc1noc(C)c1S(=O)(=O)NC(=O)[C@@]12C[C@H]1/C=C\CCCCC[C@H](NC(=O)OC(C)(C)C)C(=O)N1CCC[C@H]1C(=O)N2	> 10000 nM
